Task for the reader: assign each of the following compounds its reported growth inhibition.
Assay: NCI Yeast Anticancer Drug Screen. Data for the rad50 strain (AID 155);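 note: 0% = growth of vehicle-only cultures of the same strain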
Details: S. cerevisiae rad50 strain growth inhibition; at 33.0 µM; stronger effect = higher value
Experimental: Growth inhibition of yeast strains with defined genetic alterations is measured as a screen for potential anti-cancer activity. Selected strains with alterations in DNA damage repair or cell cycle control were exposed to compounds and growth inhibition was measured relative to vehicle treated controls. The strain used in this assay is rad50
About 79,000 compounds went through this panel and 15% of them were active in at least one assay; those are over-represented in the sample as a whole. The source made the active and inactive calls. Cut-off read from the data, not from the text of the source: active = growth inhibition above about 70%; inactive = the rest.

Give the reported value of growth inhibition for this record: `CCCc1cc(C(=O)OCC)cc(CCC)c1O`
0% (inactive)

Give the reported value of growth inhibition for this record: `c1ccc2c(c1)c1ncccc1c1nccnc21`
55% (inactive)

Give the reported value of growth inhibition for this record: `O=C(c1cc(Br)ccc1O)c1cc(Br)ccc1O`
99% (active)

Give the reported value of growth inhibition for this record: `CC(=O)OCCOCNC(=S)N/N=C(\C)c1cnccn1`
46% (inactive)

Give the reported value of growth inhibition for this record: `O=C(N=Nc1ccccc1Cl)NNc1ccccc1Cl`
14% (inactive)

Give the reported value of growth inhibition for this record: `COc1ccccc1N=NC(C(=O)c1ccccc1)C(=O)c1ccccc1`
96% (active)

Give the reported value of growth inhibition for this record: `CCC/C(Cl)=N\OC(=O)Nc1cccc(C(F)(F)F)c1`
25% (inactive)

Give the reported value of growth inhibition for this record: `O=C(NCCCCNCCCNC(=O)c1cc(-c2ccccc2)nc2ccccc12)c1cc(-c2ccccc2)nc2ccccc12`
81% (active)

Give the reported value of growth inhibition for this record: `[O-][n+]1c2ccc(O)cc2nc2ccc(Br)cc21`
87% (active)

Give the reported value of growth inhibition for this record: `O=C(NNc1ccnc2cc(Cl)ccc12)/C(=C\c1ccccc1Cl)NC(=O)c1ccccc1`
33% (inactive)

Give the reported value of growth inhibition for this record: `O=C1c2ccccc2C(=O)c2c(NC3CCCCC3)ccc(Nc3ccc(S(=O)(=O)O)cc3)c21`
27% (inactive)

###

Assay: NCI Yeast Anticancer Drug Screen. Data for the mgt1 strain (AID 153)
Conditions: S. cerevisiae mgt1 mutant growth inhibition; at 1.2 µM; stronger effect = higher value
Compounds without any hit were thinned out: in the full panel of roughly 79,000, 15% have a hit.
Task for the reader: assign each of the following compounds its reported growth inhibition.
Answer with a number only, understood to be in %.

Give the reported value of growth inhibition for this record: `O=C(CCCN1CCC(O)(c2ccc(Cl)cc2)CC1)c1ccc(F)cc1`
17

Give the reported value of growth inhibition for this record: `CC(C)NC(=O)OCc1c(COC(=O)NC(C)C)c(-c2ccc(Cl)c(Cl)c2)n2c1CCC2`
-60

Give the reported value of growth inhibition for this record: `CC(=O)Nc1ccc(/C=C(\C#N)c2ccc(C)cc2)cc1`
-6

Give the reported value of growth inhibition for this record: `NNC(=O)CCc1ccc2ccc3ccccc3c2c1`
-2

Give the reported value of growth inhibition for this record: `N#C/C(=C\c1cccc(OCc2ccccc2)c1)c1ccc([N+](=O)[O-])cc1`
-35

Give the reported value of growth inhibition for this record: `Oc1c(Br)cc(Br)cc1C1CCCCC1`
8

Give the reported value of growth inhibition for this record: `CN(Cc1cnc2nc(N)nc(N)c2n1)c1ccc(C(=O)N[C@@H](CCC(=O)O)C(=O)O)cc1`
-1

Give the reported value of growth inhibition for this record: `Fc1ccc(NC(=S)SCc2ccc(Cl)c(Cl)c2)cc1F`
-3

Give the reported value of growth inhibition for this record: `CC/C(=C(\c1ccccc1)c1ccc(OCCN(C)C)cc1)c1ccccc1`
7

Give the reported value of growth inhibition for this record: `CC1(C)[C@@H]2CC[C@]1(C)[C@H](OC(=O)CSC#N)C2`
1

Give the reported value of growth inhibition for this record: `O=[N+]([O-])c1cc2no[n+]([O-])c2cc1N1CCCCC1`
4

Give the reported value of growth inhibition for this record: `CCN(CC)[P+](c1ccccc1O)(N(CC)CC)N(CC)CC`
-42

Give the reported value of growth inhibition for this record: C/C(=N\O)C1CC2C=C(C#N)C1N(Cc1ccccc1)C2 (stereo unspecified)
-5

Give the reported value of growth inhibition for this record: `C#CCCCc1ccccc1`
-19

Give the reported value of growth inhibition for this record: `O=C(O)c1ccccc1NC(=S)c1ccccc1`
5

Give the reported value of growth inhibition for this record: `c1ccc(-c2nc3cccnc3s2)cc1`
1

Give the reported value of growth inhibition for this record: CC(/C=C/c1ccc2c(c1)OCO2)[N+](=O)[O-] (stereo unspecified)
1

Give the reported value of growth inhibition for this record: `CCN(CC)C(=S)N/N=C(/C)c1cccc(/C(C)=N\NC(=S)N(CC)CC)n1`
0

Give the reported value of growth inhibition for this record: O=C(O)C1CCCCC1c1c2ccc(=O)c(O)c-2oc2c(O)c(O)ccc12 (stereo unspecified)
11

Give the reported value of growth inhibition for this record: `OC(c1ccc(F)cc1)(c1ccc(F)cc1)C1CC1`
-36

Give the reported value of growth inhibition for this record: `O=C(NCCCNCCCNC(=O)c1cc(-c2ccccc2)nc2ccccc12)c1cc(-c2ccccc2)nc2ccccc12`
-2

Give the reported value of growth inhibition for this record: `[N-]=N[N+]#I1OC(C(F)(F)F)(C(F)(F)F)c2ccccc21`
38

Give the reported value of growth inhibition for this record: `[O-][n+]1c2ccc(O)cc2nc2ccc(Br)cc21`
4

Give the reported value of growth inhibition for this record: `S=C(N/N=C/c1ccccn1)Nc1ccc(Cl)cc1`
-7

Give the reported value of growth inhibition for this record: `COC(=O)c1ccc([N+](=O)[O-])c(O)c1`
-15

Give the reported value of growth inhibition for this record: `CN(N=O)N1C(=O)SCC(c2ccccc2)(c2ccccc2)C1=O`
-1

Give the reported value of growth inhibition for this record: `COc1ccccc1/C=C1\Sc2scc(-c3cccc([N+](=O)[O-])c3)[n+]2C1=O`
63

Give the reported value of growth inhibition for this record: `CN(CCc1ccccn1)c1ccc2c(c1)Cc1ccccc1-2`
-3

Give the reported value of growth inhibition for this record: `CCOC(=O)c1cnc2cc(C(F)(F)F)ccc2c1N=[N+]=[N-]`
4

Give the reported value of growth inhibition for this record: C=C1CC(Cn2cc(Br)c(=O)[nH]c2=O)(c2ccc(-c3ccccc3)cc2)OC1=O (stereo unspecified)
0

Give the reported value of growth inhibition for this record: `CCCc1cc(C(=O)OCC)cc(CCC)c1O`
-3

Give the reported value of growth inhibition for this record: CN1c2ccc(Cl)cc2C(=O)NC1c1ccc([N+](=O)[O-])s1 (stereo unspecified)
-5

Give the reported value of growth inhibition for this record: CCCCCCCCCCC1CCC(=O)O1 (stereo unspecified)
-2

Give the reported value of growth inhibition for this record: `O=C1C=CC(=O)N1c1ccc2c(c1)Cc1cc(NC(=O)C(F)(F)F)ccc1-2`
11

Give the reported value of growth inhibition for this record: `O=C1c2ccccc2C(=O)c2c(NC3CCCCC3)ccc(Nc3ccc(S(=O)(=O)O)cc3)c21`
-2

Give the reported value of growth inhibition for this record: COc1cc(C2c3cc4c(cc3OC(Nc3ccccc3)C2C)OCO4)cc(OC)c1O (stereo unspecified)
-1

Give the reported value of growth inhibition for this record: `CC(=O)OCc1ccc(O)c(C=O)c1`
-24

Give the reported value of growth inhibition for this record: `O=C(CC(=O)n1nc(-c2ccccc2)c(N=Nc2ccccc2C(=O)O)c1-c1ccccc1)Nc1ccc(Cl)cc1`
-2

Give the reported value of growth inhibition for this record: CC(=O)OC1CCC2(C)C(=CCC3C4CCC5(OC6CC(C)CN(C(C)=O)C6C5C)C(C)=C4C(=O)C32)C1 (stereo unspecified)
-26

Give the reported value of growth inhibition for this record: `COCCOC(=O)CCn1cc(F)c(=O)[nH]c1=O`
-1

Give the reported value of growth inhibition for this record: `COC(=O)CCNc1c2ccccc2nc2cccc([N+](=O)[O-])c12`
61

Give the reported value of growth inhibition for this record: `O=[N+]([O-])c1cccc2nc3ccccc3c(NCCCN3CCOCC3)c12`
16

Give the reported value of growth inhibition for this record: `CSC1=NNC(SC)=NN1`
12

Give the reported value of growth inhibition for this record: CCCN(CCC)CC(O)c1cc(-c2ccc(Cl)cc2)nc2c(C)c(Cl)ccc12 (stereo unspecified)
-2

Give the reported value of growth inhibition for this record: `CC(=O)Cc1ccc[cH-]1.[Fe+2].c1cc[cH-]c1`
8

Give the reported value of growth inhibition for this record: `BrCC[P+](c1ccccc1)(c1ccccc1)c1ccccc1`
-61
